- Assayed system: recombinant human 5-HT6 receptor (Homo sapiens, UniProt P50406)
- Construct: cell membranes used
- Sequence (P50406 whole entry): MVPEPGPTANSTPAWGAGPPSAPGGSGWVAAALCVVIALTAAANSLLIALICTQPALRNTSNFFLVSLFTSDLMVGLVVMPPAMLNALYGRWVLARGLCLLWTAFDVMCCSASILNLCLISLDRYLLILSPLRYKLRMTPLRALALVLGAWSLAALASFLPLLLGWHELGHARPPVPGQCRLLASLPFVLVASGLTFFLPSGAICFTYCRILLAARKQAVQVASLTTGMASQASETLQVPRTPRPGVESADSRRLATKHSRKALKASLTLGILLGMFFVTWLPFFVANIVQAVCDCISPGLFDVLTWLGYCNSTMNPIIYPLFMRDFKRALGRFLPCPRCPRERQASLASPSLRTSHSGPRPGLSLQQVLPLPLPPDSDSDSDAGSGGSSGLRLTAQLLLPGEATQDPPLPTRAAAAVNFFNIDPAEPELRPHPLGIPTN
- Test name: in vitro radioligand binding, competition for [3H]LSD binding in membranes of HEK293 cells
- Setup conditions: [3H]LSD (5 nM), HEK293 cell membranes, pH 7.4, 37° C., 60 min
Criterion: Ki strictly less than 0.5 nM. Met: y. Not met: n.

CN1CCN(c2cccc3cc(S(=O)(=O)c4cccc(Cl)c4Cl)[nH]c23)CC1 n
CN1CCN(c2cccc3cc(S(=O)(=O)c4ccccc4C(F)(F)F)[nH]c23)CC1 y
CN1CCN(c2cccc3cc(S(=O)(=O)c4cccc(Br)c4)[nH]c23)CC1 y
O=S(=O)(c1cc2cccc(N3CCNCC3)c2[nH]1)c1ccccc1C(F)(F)F y

Query :: Ki strictly < 0.5 nM for this molecule? `CN1CCC(c2cccc3cc(S(=O)(=O)c4ccccc4)[nH]c23)CC1`
Result :: n

Query :: Please determine if `O=S(=O)(c1ccccc1)c1cc2cccc(C3CCNCC3)c2[nH]1` is below 0.5 nM in terms of Ki.
Result :: n

Query :: # TODO verify Ki < 0.5 nM strictly for this molecule: `O=S(=O)(c1cc2cccc(N3CCNCC3)c2[nH]1)c1cccc(Cl)c1Cl`
Result :: y

Query :: Dear reviewer, please state whether `CN1CCN(c2cccc3cc(S(=O)(=O)c4ccccc4)[nH]c23)CC1` has Ki strictly beneath 0.5 nM.
Result :: n

---

The reader will find reported Ki values listed item by item below.
- Assayed system: recombinant human 5-HT6 receptor (Homo sapiens)
- Construct: cell membranes used
- Test name: in vitro radioligand binding, competition for [3H]LSD binding in membranes of HEK293 cells
- Setup conditions: [3H]LSD (5 nM), HEK293 cell membranes, pH 7.4, 37° C., 60 min
Return type: number; implicit unit nM.

Record O=S(=O)(c1ccccc1)c1cc2cccc(N3CCNCC3)c2[nH]1 [Compound 1] . Reported Ki: 0.501

# Ki of O=S(=O)(c1cccc(Br)c1)c1cc2cccc(N3CCNCC3)c2[nH]1 [Compound 11] = 0.501

Given item O=S(=O)(c1cc2cccc(N3CCNCC3)c2[nH]1)c1ccccc1F [Compound 5] , the value recorded as its Ki is 0.501

These entries and their values trace back to patent US7247651B2.
